Data provenance: patent EP4663640A1

pIC50 reference
- system_under_test: hTRPC4 (Homo sapiens)
- Construct: expressed in transfected cells; host or cells: HEK-293
- Sequence (Q9UBN4 whole entry): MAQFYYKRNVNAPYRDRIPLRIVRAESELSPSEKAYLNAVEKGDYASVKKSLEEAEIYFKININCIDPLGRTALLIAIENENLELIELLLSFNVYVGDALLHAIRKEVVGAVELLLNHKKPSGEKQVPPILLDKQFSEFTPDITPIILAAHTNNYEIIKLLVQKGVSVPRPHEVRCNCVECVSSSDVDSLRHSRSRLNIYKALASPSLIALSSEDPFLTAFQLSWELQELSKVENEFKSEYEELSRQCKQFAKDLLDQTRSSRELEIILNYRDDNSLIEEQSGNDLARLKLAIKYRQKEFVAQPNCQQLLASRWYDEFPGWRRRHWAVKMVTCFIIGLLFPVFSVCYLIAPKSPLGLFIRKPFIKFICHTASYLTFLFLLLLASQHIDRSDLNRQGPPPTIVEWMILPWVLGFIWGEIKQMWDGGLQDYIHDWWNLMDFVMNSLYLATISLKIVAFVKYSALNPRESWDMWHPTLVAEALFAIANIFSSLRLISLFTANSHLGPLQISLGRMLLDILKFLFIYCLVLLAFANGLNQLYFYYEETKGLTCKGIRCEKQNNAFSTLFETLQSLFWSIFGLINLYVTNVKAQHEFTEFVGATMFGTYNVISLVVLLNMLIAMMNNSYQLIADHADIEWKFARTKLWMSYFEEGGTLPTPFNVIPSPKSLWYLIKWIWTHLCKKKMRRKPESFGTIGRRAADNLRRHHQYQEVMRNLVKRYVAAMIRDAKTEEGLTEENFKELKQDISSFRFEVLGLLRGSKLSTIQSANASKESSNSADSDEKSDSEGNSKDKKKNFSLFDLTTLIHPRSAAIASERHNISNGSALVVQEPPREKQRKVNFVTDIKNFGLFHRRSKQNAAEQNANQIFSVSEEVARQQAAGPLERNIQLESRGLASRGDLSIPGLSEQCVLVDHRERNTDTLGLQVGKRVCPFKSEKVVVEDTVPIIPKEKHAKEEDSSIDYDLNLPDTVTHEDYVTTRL
- protocol: TRPC4 inhibitory activity assay (FLIPR calcium fluorescence)
- Type: cell-based
- experimental_conditions: Table 3; read-out: inhibitory activity IC50 TRPC4
pIC50 (log units): -log10 of the concentration in mol/L.

Cn1c(=O)n(CCCO)c(=O)c2c1nc(C1(F)CCC(C(F)(F)F)CC1)n2Cc1ccc(Cl)cc1 (centres unmarked): 8.08

Form field pIC50, entry COC1CCC(F)(c2nc3c(c(=O)n(CCCO)c(=O)n3C)n2Cc2ccc(Cl)cc2)CC1 (centres unmarked) : 7.74
